Data origin: the array DNA melting data of Ke et al. (doi:10.1101/2024.01.08.574731)

assay: melting temperature; fluorescence melt of hairpins on a sequencing array, two-state fit, raised by 9.35 °C to match UV melts; conditions: sodium 0.088 M
property_measured: Tm (°C)
Respond with the bare value in °C.

[
  {
    "biopolymer_sequence": "GCAAAGGGAAACCTTCGC ((.((((....)))).))",
    "unit_descriptor": "°C",
    "Tm": 39.2
  }
]

Tm in this record for GGGGAAGAAATTCCCC ((((((....)))))) : 57.1

----------
Below, each entry is listed alongside its reported folding enthalpy.
assay: folding enthalpy; higher = less favourable; fluorescence melt of hairpins on a sequencing array, two-state fit; details: sodium 0.088 M

[
  {
    "biopolymer_sequence": "GTCTCTCGAAAGAGTGAC (((.(((....))).)))",
    "result_value": "-32.6 kcal/mol"
  },
  {
    "biopolymer_sequence": "GCAAACGAAAGTTGATGC ((((((....)))..)))",
    "result_value": "-15.2 kcal/mol"
  },
  {
    "biopolymer_sequence": "GATCACACCGGTGATC ((((((....))))))",
    "result_value": "-39.3 kcal/mol"
  },
  {
    "biopolymer_sequence": "GTAGACGGAAACGTCCAC ((.((((....)))).))",
    "result_value": "-13.4 kcal/mol"
  }
]

folding enthalpy in this record for GATCGAGGCGTCGATC ((((((....)))))) : -40.6 kcal/mol

folding enthalpy in this record for GTTGCTGCGAAAGCAAAC (((..(((....)))))) : -14.3 kcal/mol

folding enthalpy in this record for GGTATGAAAATACC (((((....))))) : -20.9 kcal/mol

----------
assay: melting temperature; fluorescence melt of hairpins on a sequencing array, two-state fit, raised by 9.35 °C to match UV melts; settings: sodium 0.088 M
# label = fulfilled if Tm < 50 °C else not fulfilled

Consider the worked cases shown below.
[
  {
    "biopolymer_sequence": "GGGAGGAAACTCCC (((((....)))))",
    "discrete_label": "not fulfilled"
  },
  {
    "biopolymer_sequence": "GACAGTGGAAACACTGCC (.(((((....))))).)",
    "discrete_label": "fulfilled"
  },
  {
    "biopolymer_sequence": "GCCGTGCGAAAGCATTGC ((..(((....)))..))",
    "discrete_label": "fulfilled"
  },
  {
    "biopolymer_sequence": "GGTCTGGGAAACCAGACC (((((((....)))))))",
    "discrete_label": "not fulfilled"
  },
  {
    "biopolymer_sequence": "GGATACGAAAGTAGGTCC ((((((....)))..)))",
    "discrete_label": "fulfilled"
  }
]

# ---- query sequence ----
Is the reported Tm for GACGCTGCGAAAGCAGTC (((..(((....)))))) strictly below 50 °C?
fulfilled

----------
Below, each entry is listed alongside its reported Tm.
experiment: melting temperature; fluorescence melt of hairpins on a sequencing array, two-state fit, raised by 9.35 °C to match UV melts; details: sodium 0.088 M
Respond with the bare value in °C.

Check out these entries, answers already filled in.
[
  {
    "biopolymer_sequence": "CGATCGGAAACGATATCG ((((((....)))..)))",
    "property_measured": "Tm",
    "result_value": 35.5
  },
  {
    "biopolymer_sequence": "GGCTATGGAAACACAGCC ((((.((....)).))))",
    "property_measured": "Tm",
    "result_value": 43.2
  },
  {
    "biopolymer_sequence": "GCGTGGCGAAAGCAAGGC ((.(.((....)).).))",
    "property_measured": "Tm",
    "result_value": 46.6
  },
  {
    "biopolymer_sequence": "GTCACGTCGAAAGACGAC (((..(((....))))))",
    "property_measured": "Tm",
    "result_value": 32.1
  },
  {
    "biopolymer_sequence": "GATCAGAGCGCTGATC ((((((....))))))",
    "property_measured": "Tm",
    "result_value": 49.1
  },
  {
    "biopolymer_sequence": "GGAGGTACGAAAGTATCC (((..(((....))))))",
    "property_measured": "Tm",
    "result_value": 32.9
  },
  {
    "biopolymer_sequence": "GTCCACGAAAGTGTCGAC ((((((....)))..)))",
    "property_measured": "Tm",
    "result_value": 33.8
  },
  {
    "biopolymer_sequence": "GTCTGCGAAAGCATCGAC ((((((....)))..)))",
    "property_measured": "Tm",
    "result_value": 33.6
  },
  {
    "biopolymer_sequence": "GCTATAGGAAACTATAGC (((((((....)))))))",
    "property_measured": "Tm",
    "result_value": 53.2
  },
  {
    "biopolymer_sequence": "GTAACCGAAAGGTCTAC ((((((....))).)))",
    "property_measured": "Tm",
    "result_value": 35.5
  }
]

Tm in this record for GATCGCCAACGCGATC ((((((....)))))) : 62.9

Tm in this record for GCCCAGCGAAAGCCCGGC (((..((....))..))) : 47.1
